- measurement_target: Muscarinic acetylcholine receptor M5 (Homo sapiens)
- method_notes: Activation of human muscarinic M5 receptor expressed in CHO cells coexpressing Gq protein assessed as potentiation of acetylcholine-induced intracellular Ca2+ mobilization at 30 uM relative to acetylcholine
- Format: functional, cell-based
Lab note: anything with %max at or over 40% counts as condition met; the rest go in condition not met.

>>> label("O=C1C(=O)N(Cc2ccccc2Cl)c2ccccc21")
"condition met"
>>> label("O=C1C(=O)N(Cc2ccccc2F)c2c(F)cccc21")
"condition met"
>>> label("O=C1C(=O)N(Cc2ccccc2C(F)(F)F)c2ccc(F)cc21")
"condition not met"
>>> label("Cc1ccc2c(c1)C(=O)C(=O)N2Cc1ccc(Br)cc1")
"condition not met"
>>> label("O=C1C(=O)N(Cc2ccc(F)cc2F)c2ccc(Cl)cc21")
"condition met"

Please tell me: is the compound "O=C1C(=O)N(Cc2ccccc2Cl)c2ccc(Cl)cc21" at or over 40% in terms of %max?
condition met

Next: "COc1cccc(CN2C(=O)C(=O)c3cccc(Cl)c32)c1"
condition not met

Can you check "O=C1C(=O)N(Cc2ccccc2C(F)(F)F)c2c(Cl)ccc(Cl)c21" next?
condition not met

How about "Cc1cccc2c1N(Cc1ccc(F)cc1F)C(=O)C2=O" ?
condition not met

====

- measurement_target: Muscarinic acetylcholine receptor M5 (Homo sapiens) (UniProt P08912)
- method_notes: Activation of human muscarinic M5 receptor expressed in CHO cells coexpressing Gq protein assessed as potentiation of acetylcholine-induced intracellular Ca2+ mobilization at 30 uM relative to acetylcholine
- Type: functional, cell-based
Would you kindly list %max for each of these molecules?
Numbers only, in %.

>>> numeric_result("O=C1C(=O)N(Cc2ccccc2C(F)(F)F)c2c(Cl)cccc21")
14
>>> numeric_result("COc1ccc(CN2C(=O)C(=O)c3cccc(F)c32)cc1")
44.4
>>> numeric_result("O=C1C(=O)N(Cc2ccc(F)cc2F)c2ccccc21")
40.4

Give %max for each of the items listed below.
1. O=C1C(=O)N(Cc2ccccc2C(F)(F)F)c2ccccc21
2. Cc1ccccc1CN1C(=O)C(=O)c2c(Cl)ccc(Cl)c21
3. Cc1ccc2c(c1)C(=O)C(=O)N2Cc1ccccc1C
4. O=C1C(=O)N(Cc2ccccc2C(F)(F)F)c2ccc(OC(F)(F)F)cc21
5. O=C1C(=O)N(Cc2ccc(F)cc2F)c2ccc(F)cc21
6. Cc1ccccc1CN1C(=O)C(=O)c2ccccc21

1. 40.2
2. 16.4
3. 29.9
4. 56.5
5. 60.3
6. 36.3

====

- measurement_target: Muscarinic acetylcholine receptor M5 (Homo sapiens, UniProt P08912)
- Sequence (P08912 whole entry): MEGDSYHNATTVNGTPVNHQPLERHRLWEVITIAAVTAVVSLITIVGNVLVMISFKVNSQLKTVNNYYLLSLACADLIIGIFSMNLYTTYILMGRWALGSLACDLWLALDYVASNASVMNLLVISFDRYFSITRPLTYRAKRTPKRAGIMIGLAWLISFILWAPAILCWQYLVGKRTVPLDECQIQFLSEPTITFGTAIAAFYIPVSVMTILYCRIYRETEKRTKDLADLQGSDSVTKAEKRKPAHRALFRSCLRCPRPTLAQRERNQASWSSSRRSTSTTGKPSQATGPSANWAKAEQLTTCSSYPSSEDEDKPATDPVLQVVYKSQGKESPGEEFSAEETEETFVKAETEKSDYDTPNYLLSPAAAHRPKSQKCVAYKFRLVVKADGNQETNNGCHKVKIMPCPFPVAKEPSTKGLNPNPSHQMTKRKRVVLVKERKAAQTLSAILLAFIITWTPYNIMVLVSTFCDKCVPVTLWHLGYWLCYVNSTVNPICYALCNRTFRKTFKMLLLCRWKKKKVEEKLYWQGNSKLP
- method_notes: Activation of human muscarinic M5 receptor expressed in CHO cells coexpressing Gq protein assessed as potentiation of acetylcholine-induced intracellular Ca2+ mobilization
- Type: functional, cell-based
pEC50: −log10 of the molar value.
I'd appreciate it if you could supply pEC50 values for the items below.

Worked examples, 2 compounds total:
>>> result("O=C1C(=O)N(Cc2ccc(Br)cc2F)c2ccc(OC(F)(F)F)cc21")
"< 5.00"
>>> result("COc1ccc(CN2C(=O)C(=O)c3ccccc32)cc1")
"< 4.52"

Form field: reported pEC50 of "O=C1C(=O)N(Cc2ccccc2C(F)(F)F)c2c(F)cccc21"
< 4.52

====

- measurement_target: Muscarinic acetylcholine receptor M1 (Rattus norvegicus) (UniProt P08482)
- Sequence (P08482 whole entry): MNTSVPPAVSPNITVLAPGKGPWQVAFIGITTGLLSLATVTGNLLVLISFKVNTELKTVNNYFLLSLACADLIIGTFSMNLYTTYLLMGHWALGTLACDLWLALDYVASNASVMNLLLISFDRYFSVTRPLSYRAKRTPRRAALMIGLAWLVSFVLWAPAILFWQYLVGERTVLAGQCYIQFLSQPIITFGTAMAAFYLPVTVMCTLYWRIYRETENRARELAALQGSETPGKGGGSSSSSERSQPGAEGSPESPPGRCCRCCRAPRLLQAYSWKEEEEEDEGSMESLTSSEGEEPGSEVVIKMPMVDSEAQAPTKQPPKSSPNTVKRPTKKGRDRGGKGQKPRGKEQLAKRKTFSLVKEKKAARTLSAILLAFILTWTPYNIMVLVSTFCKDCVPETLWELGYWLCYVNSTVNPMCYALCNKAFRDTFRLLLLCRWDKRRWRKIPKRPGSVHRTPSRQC
- method_notes: Activation of rat muscarinic M1 receptor expressed in CHO cells co-expressing Gq protein assessed as potentiation of acetylcholine-induced intracellular Ca2+ mobilization at 30 uM relative to acetylcholine
- Format: functional, cell-based
value_type: %max (%)
Give bare numbers, in %.

Completed entries (count: 3):
>>> numeric_result("O=C1C(=O)N(Cc2ccccc2C(F)(F)F)c2ccc(Cl)cc21")
29.6
>>> numeric_result("Cc1ccccc1CN1C(=O)C(=O)c2cccc(F)c21")
30.2
>>> numeric_result("O=C1C(=O)N(Cc2ccc(Br)cc2F)c2ccc(Cl)cc21")
29.9

Turning to the following compound.
Find %max (Muscarinic acetylcholine receptor M1 (Rattus norvegicus) (UniProt P08482)) for the entry "O=C1C(=O)N(Cc2ccc(Br)cc2)c2c(Cl)cccc21"
29.9

====

Exercise: state measured %max for each of the compounds provided.
- measurement_target: UniProtKB P08482
- method_notes: Activation of rat muscarinic M1 receptor expressed in CHO cells co-expressing Gq protein assessed as potentiation of acetylcholine-induced intracellular Ca2+ mobilization at 30 uM relative to acetylcholine
- Format: functional, cell-based
Give bare numbers, in %.

>>> numeric_result("COc1ccc(CN2C(=O)C(=O)c3cc(C)ccc32)cc1")
14.1
>>> numeric_result("O=C1C(=O)N(Cc2ccc(OC(F)(F)F)cc2)c2ccc(F)cc21")
59.8
>>> numeric_result("COc1cccc(CN2C(=O)C(=O)c3cc(OC(F)(F)F)ccc32)c1")
28.6
>>> numeric_result("O=C1C(=O)N(Cc2ccc(Br)cc2)c2c(Cl)ccc(Cl)c21")
12.1
>>> numeric_result("O=C1C(=O)N(Cc2ccc(F)cc2F)c2ccc(F)cc21")
47.3

Please give %max for each item listed below.
1. COc1ccc(CN2C(=O)C(=O)c3ccccc32)cc1
2. O=C1C(=O)N(Cc2ccccc2C(F)(F)F)c2ccc(OC(F)(F)F)cc21
3. O=C1C(=O)N(Cc2ccc(OC(F)(F)F)cc2)c2c(Cl)ccc(Cl)c21
4. O=C1C(=O)N(Cc2ccc(Br)cc2)c2ccccc21

1. 43.6
2. 22.6
3. 16
4. 82.4

// batch mode: one %max value per listed entry
1. O=C1C(=O)N(Cc2ccc(Br)cc2)c2ccc(OC(F)(F)F)cc21
2. O=C1C(=O)N(Cc2ccccc2Cl)c2ccc(OC(F)(F)F)cc21
3. O=C1C(=O)N(Cc2ccccc2F)c2ccc(OC(F)(F)F)cc21
4. Cc1cccc2c1N(Cc1c(F)cccc1F)C(=O)C2=O
5. Cc1ccc2c(c1)C(=O)C(=O)N2Cc1ccccc1Cl
6. COc1ccc(CN2C(=O)C(=O)c3cc(Cl)ccc32)cc1

[13.2, 12.3, 11.3, 17.3, 16.8, 20.3]

====

Provide the recorded pEC50 for the entries that follow.
- measurement_target: Muscarinic acetylcholine receptor M1 (Rattus norvegicus)
- Sequence (P08482 whole entry): as above
- method_notes: Activation of rat muscarinic M1 receptor expressed in CHO cells co-expressing Gq protein assessed as potentiation of acetylcholine-induced intracellular Ca2+ mobilization
pEC50: −log10 of the molar value.

Solved entries (count: 2):
>>> result("COc1ccc(CN2C(=O)C(=O)c3ccccc32)cc1")
"< 5.00"
>>> result("O=C1C(=O)N(Cc2ccc(Br)cc2F)c2ccc(OC(F)(F)F)cc21")
"< 4.52"

Here is another compound to look at.
I have this compound here, "O=C1C(=O)N(Cc2ccccc2C(F)(F)F)c2c(F)cccc21" , and I need its recorded pEC50.
< 4.52

====

- measurement_target: Muscarinic acetylcholine receptor M5 (Homo sapiens) (UniProt P08912)
- method_notes: Activation of human muscarinic M5 receptor expressed in CHO cells coexpressing Gq protein assessed as potentiation of acetylcholine-induced intracellular Ca2+ mobilization at 30 uM relative to acetylcholine
- Assay type: functional, cell-based
For each entry below, report its %max value.
One number for each entry, in %.

Example compounds with recorded %max:
>>> numeric_result("O=C1C(=O)N(Cc2ccccc2F)c2c(Cl)ccc(Cl)c21")
14.7
>>> numeric_result("O=C1C(=O)N(Cc2ccccc2Cl)c2c(Cl)ccc(Cl)c21")
18.9
>>> numeric_result("O=C1C(=O)N(Cc2ccc(Br)cc2F)c2c(Cl)ccc(Cl)c21")
12.4

Batch lookup, %max per entry.
1. O=C1C(=O)N(Cc2ccccc2F)c2c(Cl)cccc21
2. O=C1C(=O)N(Cc2ccc(C(F)(F)F)cc2)c2c(Cl)cccc21
3. O=C1C(=O)N(Cc2ccc(Br)cc2F)c2c(F)cccc21
4. O=C1C(=O)N(Cc2ccccc2F)c2ccc(OC(F)(F)F)cc21
5. COc1ccc(CN2C(=O)C(=O)c3cccc(Cl)c32)cc1

49.5
70.8
46.3
51.8
30.3
